Molecular target: human FASN (Homo sapiens, UniProt P49327)
Construct: purified from SKBR3 cells using procedures modified from those in Jayakumar et al; endogenous in cells; host or cells: SKBR3 cells (ATCC); endogenous FASN purified in house by ammonium sulfate precipitation and mono Q chromatography
Sequence (P49327 whole entry): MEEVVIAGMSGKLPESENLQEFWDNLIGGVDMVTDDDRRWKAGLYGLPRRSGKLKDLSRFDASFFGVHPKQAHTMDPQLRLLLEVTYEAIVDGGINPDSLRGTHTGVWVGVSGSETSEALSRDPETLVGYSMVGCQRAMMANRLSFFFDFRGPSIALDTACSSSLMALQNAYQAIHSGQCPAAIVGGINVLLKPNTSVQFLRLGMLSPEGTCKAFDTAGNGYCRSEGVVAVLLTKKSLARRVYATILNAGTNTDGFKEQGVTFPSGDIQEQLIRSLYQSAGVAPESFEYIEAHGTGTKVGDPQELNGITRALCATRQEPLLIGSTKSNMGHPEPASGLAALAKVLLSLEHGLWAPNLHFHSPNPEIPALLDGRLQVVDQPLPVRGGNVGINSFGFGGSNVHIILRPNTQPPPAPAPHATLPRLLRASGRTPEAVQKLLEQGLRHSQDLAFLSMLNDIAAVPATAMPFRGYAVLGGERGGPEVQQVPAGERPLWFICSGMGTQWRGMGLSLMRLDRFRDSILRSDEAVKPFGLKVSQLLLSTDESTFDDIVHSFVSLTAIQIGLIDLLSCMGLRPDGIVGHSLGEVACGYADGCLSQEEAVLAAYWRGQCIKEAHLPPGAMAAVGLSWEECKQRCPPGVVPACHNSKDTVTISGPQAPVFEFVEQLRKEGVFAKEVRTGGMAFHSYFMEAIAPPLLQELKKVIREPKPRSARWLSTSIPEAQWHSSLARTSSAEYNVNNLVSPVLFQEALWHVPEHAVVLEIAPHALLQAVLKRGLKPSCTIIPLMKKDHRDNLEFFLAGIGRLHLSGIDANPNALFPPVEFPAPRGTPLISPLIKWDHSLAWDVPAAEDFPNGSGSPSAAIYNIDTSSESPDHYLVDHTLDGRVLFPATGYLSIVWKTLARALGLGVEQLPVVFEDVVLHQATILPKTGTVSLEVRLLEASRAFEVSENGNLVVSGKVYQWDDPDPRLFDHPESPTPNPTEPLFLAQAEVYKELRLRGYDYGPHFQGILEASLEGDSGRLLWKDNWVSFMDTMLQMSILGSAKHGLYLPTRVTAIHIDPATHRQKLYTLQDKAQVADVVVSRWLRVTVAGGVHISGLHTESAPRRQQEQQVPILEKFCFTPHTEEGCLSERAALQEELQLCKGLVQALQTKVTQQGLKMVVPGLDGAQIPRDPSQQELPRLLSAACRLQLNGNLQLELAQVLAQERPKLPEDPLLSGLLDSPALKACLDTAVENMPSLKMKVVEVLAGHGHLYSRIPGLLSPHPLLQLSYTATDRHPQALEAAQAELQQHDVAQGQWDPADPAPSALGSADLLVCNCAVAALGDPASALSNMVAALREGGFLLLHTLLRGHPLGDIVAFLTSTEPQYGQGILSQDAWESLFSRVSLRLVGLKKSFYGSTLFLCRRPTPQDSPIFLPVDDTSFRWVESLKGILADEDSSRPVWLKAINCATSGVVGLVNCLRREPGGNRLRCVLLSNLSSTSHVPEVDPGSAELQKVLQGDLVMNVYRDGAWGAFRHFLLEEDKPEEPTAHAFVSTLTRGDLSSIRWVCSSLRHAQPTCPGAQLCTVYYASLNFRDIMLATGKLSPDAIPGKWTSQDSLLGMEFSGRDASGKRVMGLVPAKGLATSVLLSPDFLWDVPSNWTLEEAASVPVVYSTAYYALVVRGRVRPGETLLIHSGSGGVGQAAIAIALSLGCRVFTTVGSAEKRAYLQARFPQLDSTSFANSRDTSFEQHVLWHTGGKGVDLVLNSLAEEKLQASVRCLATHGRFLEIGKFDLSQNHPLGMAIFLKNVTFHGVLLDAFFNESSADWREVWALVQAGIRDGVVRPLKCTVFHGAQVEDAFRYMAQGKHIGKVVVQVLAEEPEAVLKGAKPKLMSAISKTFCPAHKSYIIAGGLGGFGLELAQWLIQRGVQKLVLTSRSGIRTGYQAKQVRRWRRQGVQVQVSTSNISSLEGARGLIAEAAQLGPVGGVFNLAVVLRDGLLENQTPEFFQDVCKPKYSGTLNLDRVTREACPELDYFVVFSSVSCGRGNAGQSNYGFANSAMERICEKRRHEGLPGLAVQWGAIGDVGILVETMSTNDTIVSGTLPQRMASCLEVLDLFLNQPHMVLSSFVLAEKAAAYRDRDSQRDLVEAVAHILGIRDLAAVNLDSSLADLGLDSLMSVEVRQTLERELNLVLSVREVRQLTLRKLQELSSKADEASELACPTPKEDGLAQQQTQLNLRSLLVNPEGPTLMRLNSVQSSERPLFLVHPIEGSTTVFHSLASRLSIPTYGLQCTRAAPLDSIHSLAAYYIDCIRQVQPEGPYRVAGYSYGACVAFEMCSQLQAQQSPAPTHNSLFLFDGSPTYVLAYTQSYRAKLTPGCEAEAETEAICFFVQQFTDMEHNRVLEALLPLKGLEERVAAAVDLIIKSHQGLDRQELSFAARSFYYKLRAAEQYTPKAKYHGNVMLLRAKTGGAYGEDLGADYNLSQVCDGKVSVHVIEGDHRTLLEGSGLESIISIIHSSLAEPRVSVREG
Test: FASN NADPH consumption assay
Format: biochemical
Conditions: IC50 class, FASN NADPH Consumption Assay (symbols without asterisk); human FASN purified from SKBR3 cells
pIC50: −log10 of the molar value.
Entries and their pIC50

Look up pIC50: C[C@H]1[C@H](NC(=O)c2ccccc2-c2nnn(C(=O)N3CCCC4CCCCC43)c2C#N)C[C@H]2C[C@@H]1C2(C)C (some centres unmarked) 6.30 to 6.70

Others:
Look up pIC50: CCN(C(=O)n1nnc2ccccc21)c1ccc(C(=O)O)cc1 < 6.00

Look up pIC50: CCOC(=O)c1c(-c2ccccc2Oc2ccccc2)nnn1C(=O)N1CCCC2CCCCC21 (centres unmarked) 6.00 to 6.30

Look up pIC50: CC(C)(C)OC(=O)N1CCC(N(Cc2ccccc2)C(=O)n2nnc(-c3ccccc3Oc3ccccc3)c2C#N)CC1 < 6.00

Look up pIC50: CCN(C(=O)n1nnc(C2CCCCC2)c1C#N)c1ccccc1 6.30 to 6.70

Look up pIC50: COC(=O)C1CCc2ccccc2N1C(=O)n1nnc(-c2ccccc2Oc2ccccc2)c1C#N (centres unmarked) 6.00 to 6.30

Look up pIC50: CC(=O)N1CCC(N(Cc2ccccc2)C(=O)n2nnc(-c3ccccc3Oc3ccccc3)c2C#N)CC1 < 6.00

Look up pIC50: CCN(C(=O)n1nncc1-c1ccccc1Cl)c1ccccc1 < 6.00

Look up pIC50: N#Cc1c(-c2c(F)cccc2F)nnn1C(=O)N1CCCC2CCCCC21 (centres unmarked) 6.30 to 6.70

Look up pIC50: O=C(N1CCCC2CCCCC21)n1nnc2ccccc21 (centres unmarked) < 6.00

Look up pIC50: CCN(C(=O)n1cc(-c2ccccc2)nn1)C1CCCCC1 < 6.00
